Some compounds, each annotated with its measured ED50.
Molecular target: Squalene synthase (Mus musculus) (UniProt P53798)
Sequence (P53798 whole entry): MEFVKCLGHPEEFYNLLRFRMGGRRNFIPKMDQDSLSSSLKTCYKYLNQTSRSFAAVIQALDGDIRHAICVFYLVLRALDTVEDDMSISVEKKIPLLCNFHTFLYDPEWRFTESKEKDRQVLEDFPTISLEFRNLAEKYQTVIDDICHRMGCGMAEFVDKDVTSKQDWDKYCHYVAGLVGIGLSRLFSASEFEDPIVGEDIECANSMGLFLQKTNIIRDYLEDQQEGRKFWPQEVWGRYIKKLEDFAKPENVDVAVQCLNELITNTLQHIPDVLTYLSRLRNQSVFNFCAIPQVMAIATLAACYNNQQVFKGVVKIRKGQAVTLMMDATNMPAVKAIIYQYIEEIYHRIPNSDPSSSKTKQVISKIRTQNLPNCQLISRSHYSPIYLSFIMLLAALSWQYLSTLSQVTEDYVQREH
Assay: Tested for the effective dose required for the incorporation of [5-3H]-mevalonolactone into cholesterol by in vivo mouse assay by peroral administration
Format: functional, organism-based

Below are worked cases with known answers.
Exercise: Fill in: ED50 of C=C(CCC12OC(C(=O)O)C(O)(C(=O)O)C(C(=O)O)(O1)[C@H](OC(=O)CCC(=O)O)[C@H]2O)[C@@H](OC(C)=O)[C@H](C)Cc1ccccc1 (stereo partly drawn) is ___
Solution: > 12 mg/kg

Exercise: Please report the recorded ED50 for C=C(CCC12OC(C(=O)O)C(O)(C(=O)O)C(C(=O)O)(O1)[C@H](OC(=O)CC(C)(C)C)[C@H]2O)[C@@H](OC(C)=O)[C@H](C)Cc1ccccc1 (stereo partly drawn) .
Solution: > 12 mg/kg

Exercise: May I ask what ED50 has been recorded for C=C(CCC12OC(C(=O)O)C(O)(C(=O)O)C(C(=O)O)(O1)[C@H](OC(=O)CCCC)[C@H]2O)[C@@H](OC(C)=O)[C@H](C)Cc1ccccc1 (stereo partly drawn) ?
Solution: > 24 mg/kg

---
Exercise: Recorded ED50 for C=C(CCC12OC(C(=O)O)C(O)(C(=O)O)C(C(=O)O)(O1)[C@H](O/C(S)=N/C(C)C)[C@H]2O)[C@@H](OC(C)=O)[C@H](C)Cc1ccccc1 (stereo partly drawn) , please?
Solution: > 6 mg/kg

Exercise: Data request, read-out ED50, for C=C(CCC12OC(C(=O)O)C(O)(C(=O)O)C(C(=O)O)(O1)[C@H](OC(=O)CCCN)[C@H]2O)[C@@H](OC(C)=O)[C@H](C)Cc1ccccc1 (stereo partly drawn)
Solution: > 12 mg/kg

Exercise: Query (compound): C=C(CCC12OC(C(=O)O)C(O)(C(=O)O)C(C(=O)O)(O1)[C@H](O)[C@H]2O)[C@@H](OC(C)=O)[C@H](C)Cc1ccccc1 (stereo partly drawn) ; field requested: ED50
Solution: > 24 mg/kg

Exercise: Report ED50 for C=C(CCC12OC(C(=O)O)C(O)(C(=O)O)C(C(=O)O)(O1)[C@H](OC(=O)N(C)C)[C@H]2O)[C@@H](OC(C)=O)[C@H](C)Cc1ccccc1 (stereo partly drawn) please.
Solution: > 24 mg/kg

Exercise: What value of ED50 has been reported for the following compound? C=C(CCC12OC(C(=O)O)C(O)(C(=O)O)C(C(=O)O)(O1)[C@H](OC(=O)C(C)(C)C)[C@H]2O)[C@@H](OC(C)=O)[C@H](C)Cc1ccccc1 (stereo partly drawn)
Solution: > 12 mg/kg
